Hello, the source for this data is ChEMBL document CHEMBL1122731, in case you need it.

System: Mus musculus
Test: Compound was tested for analgesic activity by tail-flick test after peroral administration in mice
Type: functional
Conditions: po
ASSAY_METRIC: ED50 (mg/kg)
Numbers only here, please. The scale is mg/kg.

Below, 4 compounds whose answers are already recorded.
COMPOUND	ASSAY_METRIC	NUMERIC_RESULT
CN1CC[C@]23CCCC[C@H]2[C@H]1Cc1ccc(O)cc13.O=C(O)C(O)C(O)C(=O)O	ED50	8.5
Br.COc1ccc2c(c1)[C@@]13CCCCC1[C@@H](C2)N(C)CC3 (stereo not given in full) [LEVOMETHORPHAN HYDROBROMIDE]	ED50	5.27
CN1CC[C@]23CCCC[C@H]2[C@H]1Cc1ccc(Oc2ccccc2)cc13.O=C(O)C(O)C(O)C(=O)O	ED50	51.7
CN1CC[C@]23c4c5ccc(O)c4O[C@H]2[C@@H](O)C=C[C@H]3[C@H]1C5.CN1CC[C@]23c4c5ccc(O)c4O[C@H]2[C@@H](O)C=C[C@H]3[C@H]1C5.O=S(=O)(O)O	ED50	31.2

Could you now consider this next compound?
Ask: Which ED50 is reported for this compound? COc1ccc2c3c1O[C@H]1[C@@H](O)C=C[C@H]4[C@@H](C2)N(C)CC[C@@]341.COc1ccc2c3c1O[C@H]1[C@@H](O)C=C[C@H]4[C@@H](C2)N(C)CC[C@@]341.O.O=P(O)(O)O.O=P(O)(O)O [CODEINE PHOSPHATE]
Reply: 119
